I'd appreciate it if you could supply polymerase ribozyme fitness (log ratio) values for the items below.
B1: TPR t1 (parent)
chain: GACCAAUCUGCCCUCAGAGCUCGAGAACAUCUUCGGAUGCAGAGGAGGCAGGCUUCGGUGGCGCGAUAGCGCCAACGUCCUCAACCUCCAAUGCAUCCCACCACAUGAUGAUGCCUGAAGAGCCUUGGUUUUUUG

- Variants of: B1
- Assay Overview: polymerase ribozyme fitness, log enrichment relative to wild type (log ratio); higher = more active; in vitro selection for triplet polymerase activity
One number for each entry.

Guide cases for polymerase ribozyme fitness (log ratio), answers given:
Sequence Entry: GACCAAUCAGCCCUCAGAGCUCGAGAACAUCUUCGGAUGCAGAGGAGGCAGGCUUCGGUGGCGCGAUAGCGCCAACGUCCUCAACCUCCAAUGCAUCCAACCACAUGAUGAUGCCUGAAGAGCCUUGGUUUUUUG [U9A C99A]
polymerase ribozyme fitness (log ratio): -6.7
//
Sequence Entry: GACCAAUCUGCCCUCAGAGCUCGAGAACAUCUUCGGAUGCGGAGGAGGCAGGCUUCGGUGACGCGAUAGCGCCAACGUCCUCAACCUCCAAUGCAUCCCAUCACAUGAUGAUGCCUGAAGAGCCUUGGUUUUGUG [A41G G61A C101U U133G]
polymerase ribozyme fitness (log ratio): -1.01
//
Sequence Entry: GACCAAUCUGCCCUCAGAGCUCGAGAACAUCUUCGGAUGCAGAGGAGGCAGGCUUCGGUGGCGCGAUAGCGCCAACGUCCUCAACCUCCAAUGCAUCCCACCACUUGAUGAUGCCUGAAGAGCCUUGGUUUUUUU [A105U G135U]
polymerase ribozyme fitness (log ratio): -2.99
//
Sequence Entry: GACCAAUCUGGCCUCAGAGCUCGAGAACAUCUUCGGAUGCAGAGGAGGCAGGCUUCGGUGGCGCGAUAGCGCCUAAGACUUCAACCUCCAAUUCAUCCCACCACAUGAUGAUGCCUGAAGAGCCUUGGUUUUUUC [C11G A74U C76A U78A C80U G93U G135C]
polymerase ribozyme fitness (log ratio): -3.08
//
Sequence Entry: GACCAAUCUGCCCUCAGAGCUCGAGAACAUCUUCGGAUGCAGAGGAGGCAGGCUUCGGUGGCGCGAUAGCGCCAACGUCCUCAACCUCCAAUGCAUCCCACCACAUGAUGAUGACUGAAGAGCCUUGUUUUUUUG [C114A G128U]
polymerase ribozyme fitness (log ratio): -3.33

Please report polymerase ribozyme fitness (log ratio) for every entry that follows.
1. GACCAAUCUGCCCUCAGAGCUCGAGAACAUCUUCGGAUGAAGAGGAGGCAGGCUUCGGUGGCGCGAUAGCGCCAACGUCCUCAACCUCCGAUGCAUCCCACCACAUGAUGAUGCCUGAAGAGUCUUGGUUUUUUG [C40A A90G C123U]
2. GACCAAUCUGCCCUCAGAGCUCGAGAACAUCUUCGGAUGCAGAGGAGGCAGGCUUCGGUGGCGCGAUAGCGCCAACCUCCUCAACCUCCAAUGCAUCCCACCACAUGAUGAUGCCUUAAGAGCCUUGGUUUUUUG [G77C G117U]
3. GACCAAUCAGCCCUCAGAGCUCGAGAACAUCUUCGGAUGCAGAGGAGGAAGGCUUCGGUGGCGCGAUAGCGACAACGUCCUCAACCUCCAAUGCAUCCCUCCACAUGAUGAUGCCUGAAGAGCCUUGGUUUUUUG [U9A C49A C72A A100U]
4. GACCAAUCUGCCCUCAGGGCUCGAGAACAUCUUCGGAUGCAGAGGAGGCAGCCUUCGGUGGCGCGAUAGCGCCAACGUCCUCAACCUCCAAUGCAUCCCACCACAUGAUGAUGCCUGAAGAGCCUUGGUUUUUUG [A18G G52C]
5. GACCAAUCUGCCCUCAGAGCUCGAGAACAUCUUCGGAUGCAGUGGAGGCAGGCUUCGGUGGUGCGAUAGCGCCAACAUCCUCAACCUCCAAUGCAUCCCACCACAUGAUGAUGCCUGAAGAGCCUAGGUUUUUUG [A43U C62U G77A U126A]
6. GCCCAAUCUGACCUCACAGCUCGAGAACAUCUUCGGAUGCAGAGGAGGCAGGCUUCGGUGGCGCGAUAGUGCCAACGUCCUCAACCUCCAAUGCAUCCCACCACAUGAUGAUGCCUGAAGAGGCUUGGUUUUUUG [A2C C11A G17C C70U C123G]
7. GACCAAUCUGCCCUCAGAGCUCGAGAACAUCUUCGGAUGCAGAGGAGGCAGGCUUCGGUGGCGCGAUAGCGCCAACGUCUUCAACCUCCAAUGUAUCCCACCACAUGAUGAUGCCUGAAGAGCCUUGGUUUUUUG [C80U C94U]
8. GACCAAUCUGCCCUCUGAGCUCGAGAACAUCUUCGGAUGCAGAGGAGGCAGGCUUCGGUGGCGCGAUAGCGCAAACGUCCUCAACCUCCAAUGCAUCCCACCACAUGAUGAUGCCUGAAGAGCCUUGGUUUUUUG [A16U C73A]

0.623
-2.55
-0.384
-3.49
-5.02
-3.69
-0.851
-2.64

Below are 5 variants. Give each one its polymerase ribozyme fitness (log ratio).
1. GACCAAGCUGCCCUCAGAGCUCGAGAACAUCUUCGGAUGCAGAGGAGGCACGCUCCGGUGGCGCGAUAGCGCAAACGUCCUCAACCUCCAAUGCAUCCCACCACAUGAUGAUGCCUGAAGAGCCUUGGUUUUUUG [U7G G51C U55C C73A]
2. GACCAAUCUGCCCUCAGAGCUCGAGAACAUCUUCGGAUGCAGAGGAGUCAGGCUUCGGUGGCGCGAUAGCGCCAACGUCCUCAACCUCAAAUGCAUCCCACCACAUGAUGAUGCCUGAAGAGCCUUGGUAUUUUG [G48U C89A U130A]
3. GACCAAUCUGCCCUCAGAGUUCGAGAACAUCUUCGGAUGCAGAGGAGGCAGGCUUCGGUGGCGCGAUAGCGCCAACGUCCUCGACCUCCAAUGCAUCCCAACACAUGAUGAUGCCUUAAGAGCCUUGGUUUUUUG [C20U A83G C101A G117U]
4. GACCAAUGUGCCCUCAGAGCUCGAGAUCAUCUUCGGAUGCAGAGGAGGCAGGUUUCGGUGGCGCGAUAGCGCCAACGUCCUCAACCUCCAAUGCAUCCCACCACAUGAUGCUGGCUGAAGAGCCUUGGUUUUUUG [C8G A27U C53U A111C C114G]
5. GACCAAUCUGCCCUCAGAGCUCGAGAACAUCUUCGGAUGCAGAGGAGGCAGGCUUCGGUCGCGCGAUAGCGCCAACGUCUUCAACCUCCAAUGCAUCCCACCACAUGAUGAUGCCUGAAGAGCCUUGGUUUUUUG [G60C C80U]

[-3.19, -2.33, -5.42, -6.88, -4.1]
